tested on: A549; assay: SRB cytotoxicity assay, A549; format: cell-based; conditions: Homo sapiens; A549; SRB; mean ± SEM
parameter: pIC50
One number for each entry, as −log10 of the molar value.

# get_value(readout='pIC50', item= COc1cccc2c1C(=O)c1c(O)c3c(c(O)c1C2=O)C[C@@](O)(C(=O)CO)C[C@@H]3O[C@H]1C[C@H](N)[C@H](O)[C@H](C)O1 [DOX, Doxorubicin, reference compound] )
6.21

----------
system: MDA-MB-231; assay: SRB cytotoxicity assay, MDA-MB-231; format: cell-based; conditions: MDA-MB-231; SRB; mean ± SEM
parameter: pIC50
Give bare numbers, as −log10 of the molar value.

Any idea what its pIC50 is? The compound is "COC(=O)c1cc(NC2=NC(=O)C(=Cc3ccc(C)cc3)S2)ccc1OC(C)=O"
4.81

----------
system: F-180; assay: SRB cytotoxicity assay, normal fibroblast F-180; type: cell-based, human; conditions: F-180 normal fibroblast, mean ± SEM, listed as doxorubicin
parameter: IC50

Field request: IC50 | item: COc1cccc2c1C(=O)c1c(O)c3c(c(O)c1C2=O)C[C@@](O)(C(=O)CO)C[C@@H]3O[C@H]1C[C@H](N)[C@H](O)[C@H](C)O1 [DOX, Doxorubicin, reference compound]
< 1200 nM
